test system: Pseudoperonospora cubensis; assay: Fungicidal activity against Pseudoperonospora cubensis assessed as cucumber downy mildew disease control at 7.8 ppm foliar application 24 hr before inoculation on upper surface of leaf by preventive manner; format: functional
experimental-endpoint: Activity

Some entries whose results are on file:
CNC(=O)/C(=N/OC)c1ccccc1NCc1ccccc1 = <70%
CNC(=O)/C(=N/OC)c1ccccc1Oc1cccc(O)c1 = <70%

Record summary for `CNC(=O)/C(=N/OC)c1ccccc1COc1ccccc1` : reported Activity = <70%

Record summary for `CNC(=O)/C(=N/OC)c1ccccc1Oc1ccc(OC)cc1` : reported Activity = 70%

Record summary for `CNC(=O)/C(=N/OC)c1ccccc1Oc1ccc(Cl)c(C)c1` : reported Activity = 70%

Record summary for `CNC(=O)/C(=N/OC)c1cc(F)ccc1Oc1ccccc1` : reported Activity = 70%

Record summary for `CNC(=O)/C(=N/OC)c1ccc(C)cc1Oc1ccccc1` : reported Activity = 70%

Record summary for `CNC(=O)/C(=N/OC)c1ccccc1Oc1cccc(OCC#N)c1` : reported Activity = <70%
